experiment: Plasma PK of ANEB-001 and THC, 50 and 100 mg oral Compound 1 with THC (Example 2); assay type: in vivo, human; conditions: human, in vivo, 10 mg THC + Placebo; 1 hrs; read-out: THC Concentration in Plasma, Median
EXPERIMENTAL ENDPOINT: concentration at 1 h (ng/mL)
Give your result in ng/mL as a bare value.

Ask: Quote concentration at 1 h reported for CCCCCc1cc(O)c2c(c1)OC(C)(C)[C@@H]1CCC(C)=C[C@@H]21 [THC, Δ9-tetrahydrocannabinol] please.
Reply: 2.27

---

assay: Plasma PK of ANEB-001 and THC, 50 and 100 mg oral Compound 1 with THC (Example 2); type: in vivo, human; details: human, in vivo, 10 mg THC + Placebo; read-out: THC plasma tmax, Median
EXPERIMENTAL ENDPOINT: Tmax (h)
Give your result in h as a bare value.

Ask: Quote Tmax reported for CCCCCc1cc(O)c2c(c1)OC(C)(C)[C@@H]1CCC(C)=C[C@@H]21 [THC, Δ9-tetrahydrocannabinol] please.
Reply: 1

---

experiment: Plasma PK of ANEB-001 and THC, 50 and 100 mg oral Compound 1 with THC (Example 2); format: in vivo, human; conditions: human, in vivo, 10 mg THC + Placebo; 2 hrs; read-out: THC Concentration in Plasma, Mean
EXPERIMENTAL ENDPOINT: concentration at 2 h (ng/mL)
Give your result in ng/mL as a bare value.

Ask: Quote concentration at 2 h reported for CCCCCc1cc(O)c2c(c1)OC(C)(C)[C@@H]1CCC(C)=C[C@@H]21 [THC, Δ9-tetrahydrocannabinol] please.
Reply: 1.44

---

assay: Plasma PK of ANEB-001 and THC, 30 mg or 10 mg oral Compound 1 with 21 mg THC (Example 4); assay type: in vivo, human; conditions: human, in vivo, 21 mg THC + 30 mg ANEB-001; 04H00M; read-out: THC in Plasma (concentration), Median
EXPERIMENTAL ENDPOINT: concentration at 4 h (ng/mL)
Give your result in ng/mL as a bare value.

Ask: Quote concentration at 4 h reported for CCCCCc1cc(O)c2c(c1)OC(C)(C)[C@@H]1CCC(C)=C[C@@H]21 [THC, Δ9-tetrahydrocannabinol] please.
Reply: 1.28

---

test: Plasma PK of ANEB-001 and THC, 30 mg or 10 mg oral Compound 1 with 21 mg THC (Example 4); format: in vivo, human; settings: human, in vivo, 21 mg THC + 30 mg ANEB-001; read-out: THC plasma tmax, Median
EXPERIMENTAL ENDPOINT: Tmax (min)
Give your result in min as a bare value.

Ask: Quote Tmax reported for CCCCCc1cc(O)c2c(c1)OC(C)(C)[C@@H]1CCC(C)=C[C@@H]21 [THC, Δ9-tetrahydrocannabinol] please.
Reply: 40.2

---

test: Plasma PK of ANEB-001 and THC, 50 and 100 mg oral Compound 1 with THC (Example 2); type: in vivo, human; conditions: human, in vivo, 10 mg THC + 50 mg ANEB-001; read-out: THC plasma Cmax, Geometric Mean
EXPERIMENTAL ENDPOINT: Cmax (ng/mL)
Give your result in ng/mL as a bare value.

Ask: Quote Cmax reported for CCCCCc1cc(O)c2c(c1)OC(C)(C)[C@@H]1CCC(C)=C[C@@H]21 [THC, Δ9-tetrahydrocannabinol] please.
Reply: 3.14

---

assay: Plasma PK of ANEB-001 and THC, 50 and 100 mg oral Compound 1 with THC (Example 2); assay type: in vivo, human; conditions: human, in vivo, 10 mg THC + 100 mg ANEB-001; read-out: THC plasma tmax, Median
EXPERIMENTAL ENDPOINT: Tmax (min)
Give your result in min as a bare value.

Ask: Quote Tmax reported for CCCCCc1cc(O)c2c(c1)OC(C)(C)[C@@H]1CCC(C)=C[C@@H]21 [THC, Δ9-tetrahydrocannabinol] please.
Reply: 40.2

---

assay: Plasma PK of ANEB-001 and THC, 50 and 100 mg oral Compound 1 with THC (Example 2); type: in vivo, human; details: human, in vivo, 10 mg THC + 100 mg ANEB-001; 24 hrs; read-out: THC Concentration in Plasma, Median
EXPERIMENTAL ENDPOINT: concentration at 24 h
Please provide the amount together with its unit, number first.

Ask: Quote concentration at 24 h reported for CCCCCc1cc(O)c2c(c1)OC(C)(C)[C@@H]1CCC(C)=C[C@@H]21 [THC, Δ9-tetrahydrocannabinol] please.
Reply: 0 ng/mL

---

experiment: Plasma PK of ANEB-001 and THC, 30 mg or 10 mg oral Compound 1 with 21 mg THC (Example 4); assay type: in vivo, human; conditions: human, in vivo, 21 mg, 21 mg THC + Placebo; 02H00M; read-out: THC in Plasma (concentration), Mean
EXPERIMENTAL ENDPOINT: concentration at 2 h (ng/mL)
Give your result in ng/mL as a bare value.

Ask: Quote concentration at 2 h reported for CCCCCc1cc(O)c2c(c1)OC(C)(C)[C@@H]1CCC(C)=C[C@@H]21 [THC, Δ9-tetrahydrocannabinol] please.
Reply: 2.85

---

assay: Plasma PK of ANEB-001 and THC, 30 mg or 10 mg oral Compound 1 with 21 mg THC (Example 4); type: in vivo, human; settings: human, in vivo, 21 mg THC + 30 mg ANEB-001; 02H00M; read-out: THC in Plasma (concentration), Median
EXPERIMENTAL ENDPOINT: concentration at 2 h (ng/mL)
Give your result in ng/mL as a bare value.

Ask: Quote concentration at 2 h reported for CCCCCc1cc(O)c2c(c1)OC(C)(C)[C@@H]1CCC(C)=C[C@@H]21 [THC, Δ9-tetrahydrocannabinol] please.
Reply: 4.01

---

assay: Plasma PK of ANEB-001 and THC, 50 and 100 mg oral Compound 1 with THC (Example 2); assay type: in vivo, human; details: human, in vivo, 10 mg THC + 50 mg ANEB-001; 4 hrs; read-out: THC Concentration in Plasma, Median
EXPERIMENTAL ENDPOINT: concentration at 4 h

Ask: Quote concentration at 4 h reported for CCCCCc1cc(O)c2c(c1)OC(C)(C)[C@@H]1CCC(C)=C[C@@H]21 [THC, Δ9-tetrahydrocannabinol] please.
Reply: 0.379 ng/mL

---

assay: Plasma PK of ANEB-001 and THC, 50 and 100 mg oral Compound 1 with THC (Example 2); format: in vivo, human; conditions: human, in vivo, 10 mg THC + 100 mg ANEB-001; 4 hrs; read-out: THC Concentration in Plasma, Mean
EXPERIMENTAL ENDPOINT: concentration at 4 h

Ask: Quote concentration at 4 h reported for CCCCCc1cc(O)c2c(c1)OC(C)(C)[C@@H]1CCC(C)=C[C@@H]21 [THC, Δ9-tetrahydrocannabinol] please.
Reply: 0.446 ng/mL

---

test: Plasma PK of ANEB-001 and THC, 50 and 100 mg oral Compound 1 with THC (Example 2); format: in vivo, human; details: human, in vivo, 10 mg THC + 100 mg ANEB-001; read-out: THC plasma Cmax, Geometric Mean
EXPERIMENTAL ENDPOINT: Cmax (ng/mL)
Give your result in ng/mL as a bare value.

Ask: Quote Cmax reported for CCCCCc1cc(O)c2c(c1)OC(C)(C)[C@@H]1CCC(C)=C[C@@H]21 [THC, Δ9-tetrahydrocannabinol] please.
Reply: 3.08

---

assay: Plasma PK of ANEB-001 and THC, 30 mg or 10 mg oral Compound 1 with 21 mg THC (Example 4); format: in vivo, human; settings: human, in vivo, 21 mg THC + 30 mg ANEB-001; read-out: THC plasma AUC5H, Mean
EXPERIMENTAL ENDPOINT: AUC(0-t) (ng·h/mL)
Give your result in ng·h/mL as a bare value.

Ask: Quote AUC(0-t) reported for CCCCCc1cc(O)c2c(c1)OC(C)(C)[C@@H]1CCC(C)=C[C@@H]21 [THC, Δ9-tetrahydrocannabinol] please.
Reply: 17

---

experiment: Plasma PK of ANEB-001 and THC, 50 and 100 mg oral Compound 1 with THC (Example 2); format: in vivo, human; settings: human, in vivo, 10 mg THC + 50 mg ANEB-001; 1 hrs; read-out: THC Concentration in Plasma, Mean
EXPERIMENTAL ENDPOINT: concentration at 1 h (ng/mL)
Give your result in ng/mL as a bare value.

Ask: Quote concentration at 1 h reported for CCCCCc1cc(O)c2c(c1)OC(C)(C)[C@@H]1CCC(C)=C[C@@H]21 [THC, Δ9-tetrahydrocannabinol] please.
Reply: 2.76

---

test: Plasma PK of ANEB-001 and THC, 30 mg or 10 mg oral Compound 1 with 21 mg THC (Example 4); type: in vivo, human; conditions: human, in vivo, 21 mg, 21 mg THC + Placebo; read-out: THC plasma Cmax, Mean
EXPERIMENTAL ENDPOINT: Cmax (ng/mL)
Give your result in ng/mL as a bare value.

Ask: Quote Cmax reported for CCCCCc1cc(O)c2c(c1)OC(C)(C)[C@@H]1CCC(C)=C[C@@H]21 [THC, Δ9-tetrahydrocannabinol] please.
Reply: 6.23
